- assaySystem: SpLsb4
- experimentDescription: SPOT peptide array binding signal intensity (averaged, normalized) (arbitrary units (background-subtracted, floor 0; scale differs between SH3 domains)); higher = stronger binding of the SH3 domain to the peptide
quantityMeasured: SPOT peptide array binding signal intensity
Number only, please.

PLQSKIPMLPSRRTM    5580
EREKALPPIPFTTTL    7
NRLRKRLNLPSEISI    29
RSKRLFPVRPMATAH    624
KNRKNLPTIPIRLSG    2330

Lookup result for PKMLPIPSKPTLFDL ; measured SPOT peptide array binding signal intensity: 402

Lookup result for FIRKRAPTPPAPSRS ; measured SPOT peptide array binding signal intensity: 1130

Lookup result for DRIRMFIRFPKFLLE ; measured SPOT peptide array binding signal intensity: 139
